Biological target: mGluR5 receptor (Sus scrofa, UniProt I3LUI7)
Construct: 450 μg of protein from brain homogenate with 5 nM ^3[H]-MPEP; from tissue; host or cells: pig brain halves without medulla, cerebellum and pons
Sequence (I3LUI7 19-1212): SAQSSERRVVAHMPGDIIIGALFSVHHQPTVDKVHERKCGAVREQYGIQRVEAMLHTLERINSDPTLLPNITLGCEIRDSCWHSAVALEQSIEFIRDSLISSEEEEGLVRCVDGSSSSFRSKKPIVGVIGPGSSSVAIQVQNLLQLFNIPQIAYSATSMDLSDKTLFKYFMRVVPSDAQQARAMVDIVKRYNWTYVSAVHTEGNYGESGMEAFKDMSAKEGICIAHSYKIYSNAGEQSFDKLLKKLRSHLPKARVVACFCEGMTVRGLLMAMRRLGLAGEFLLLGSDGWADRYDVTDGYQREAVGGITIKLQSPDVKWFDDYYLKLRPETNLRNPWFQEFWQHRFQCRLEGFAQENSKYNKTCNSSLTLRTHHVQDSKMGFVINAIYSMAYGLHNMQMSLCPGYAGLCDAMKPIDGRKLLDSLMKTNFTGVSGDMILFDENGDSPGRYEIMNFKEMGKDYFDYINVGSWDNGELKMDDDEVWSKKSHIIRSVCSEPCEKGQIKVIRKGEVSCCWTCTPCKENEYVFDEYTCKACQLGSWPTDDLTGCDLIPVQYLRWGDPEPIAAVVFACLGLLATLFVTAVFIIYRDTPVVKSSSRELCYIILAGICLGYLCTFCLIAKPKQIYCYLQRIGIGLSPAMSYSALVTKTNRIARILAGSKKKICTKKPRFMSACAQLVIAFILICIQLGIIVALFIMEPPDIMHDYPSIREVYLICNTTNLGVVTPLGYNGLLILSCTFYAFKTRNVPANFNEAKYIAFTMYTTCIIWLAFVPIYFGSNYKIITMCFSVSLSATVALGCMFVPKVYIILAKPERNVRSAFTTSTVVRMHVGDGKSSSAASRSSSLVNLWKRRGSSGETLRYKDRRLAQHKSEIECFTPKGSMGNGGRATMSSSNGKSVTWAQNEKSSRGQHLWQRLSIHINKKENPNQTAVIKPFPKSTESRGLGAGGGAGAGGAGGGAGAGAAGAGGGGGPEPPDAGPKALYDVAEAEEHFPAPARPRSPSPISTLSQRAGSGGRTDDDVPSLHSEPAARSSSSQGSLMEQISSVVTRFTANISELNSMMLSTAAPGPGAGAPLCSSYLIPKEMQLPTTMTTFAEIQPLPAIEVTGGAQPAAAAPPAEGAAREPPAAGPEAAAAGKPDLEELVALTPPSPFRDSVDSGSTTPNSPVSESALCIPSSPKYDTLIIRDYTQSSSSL
Assay: [3H]-MPEP mGluR5 receptor binding assay (pig brain homogenate)
Conditions: 10 μM compound, 5 nM [3H]-MPEP, read-out: % Inhibition of mGluR5 Receptor (pig) [^3H]-MPEP Bond at 10 μM
Description: I. Method for Determining the Inhibition of the [^3H]-MPEP Bond in the mGluR5 Receptor Binding Assay […] The batches are then filtered using a Brandel cell harvester (Brandel, Robotic 9600) on unifilter plates with fibreglass filter mats (Perkin Elmer, order no. 6005177) and then washed with buffer (as above) 3-times each with 250 μl per sample. […] The non-specific binding is determined by adding 10 μM of MPEP (Tocris, order no. 1212).
Respond with Criterion met for inhibition at 10 µM values of 80% and above, Criterion not met for values below.

Here are 2 compounds together with their reported answers.
CS(=O)(=O)N(Cc1cc(-c2ccc3ncnc(NC4CC4)c3c2)ccn1)C1CC1 : Criterion not met
O=C(C1CCCCC1)N(Cc1cc(-c2ccc3ncnc(NC4CC4)c3c2)ccc1F)C1CC1 : Criterion not met

Ask | Hello, I need to know if O=C(c1ccc(F)cc1F)N(Cc1cc(-c2ccc3ncnc(NC4CC4)c3c2)ccc1Cl)C1CC1 has measured inhibition at 10 µM not below 80%. Thanks!
Reply | Criterion met

Ask | Hello, I need to know if CNc1ncnc2ccc(-c3ccc(F)c(CN(C)C(=O)c4c(F)c(F)c(F)c(F)c4F)c3)cc12 has measured inhibition at 10 µM not below 80%. Thanks!
Reply | Criterion not met

Ask | Hello, I need to know if Cc1cc2ncnc(NC3CC3)c2cc1-c1cccc(CN(C2CC2)S(=O)(=O)c2cccc3cccnc23)c1 has measured inhibition at 10 µM not below 80%. Thanks!
Reply | Criterion not met

Ask | Hello, I need to know if Cc1nc(C(=O)N(Cc2cc(-c3ccc4ncnc(NC5CC5)c4c3)ccc2F)C2CC2)cs1 has measured inhibition at 10 µM not below 80%. Thanks!
Reply | Criterion met

Ask | Hello, I need to know if Cc1cc2ncnc(NC3CC3)c2cc1-c1cccc(CN(C(=O)c2cccnc2)C2CC2)c1 has measured inhibition at 10 µM not below 80%. Thanks!
Reply | Criterion met

Ask | Hello, I need to know if COC(=O)CN(Cc1cccc(-c2ccc3ncnc(NC4CC4)c3c2)c1)C(=O)CC#N has measured inhibition at 10 µM not below 80%. Thanks!
Reply | Criterion not met

Ask | Hello, I need to know if CC(C)S(=O)(=O)N(Cc1cc(-c2ccc3ncnc(NC4CC4)c3c2)ccn1)C1CC1 has measured inhibition at 10 µM not below 80%. Thanks!
Reply | Criterion met

====

The following compounds are shown together with reported inhibition at 10 µM values.
Biological target: mGluR5 receptor (Sus scrofa, UniProt I3LUI7)
Construct: 450 μg of protein from brain homogenate with 5 nM ^3[H]-MPEP; from tissue; host or cells: pig brain halves without medulla, cerebellum and pons
Assay: [3H]-MPEP mGluR5 receptor binding assay (pig brain homogenate)
Details: 10 μM compound, 5 nM [3H]-MPEP, read-out: % Inhibition of mGluR5 Receptor (pig) [^3H]-MPEP Bond at 10 μM
# output: bare number, implied unit %

Consider the reported inhibition at 10 µM for these compounds:
CC(C)(C)Nc1ncnc2ccc(-c3ccc(F)c(CN(C(=O)c4ccc(F)cc4F)C4CC4)c3)cc12 : 83
Cc1cc2ncnc(NC3CC3)c2cc1-c1cccc(CN(C(=O)c2ccncc2)C2CC2)c1 : 89
Cc1ccc(C(=O)N(Cc2cccc(-c3ccc4ncnc(N5CCCC5)c4c3)c2)C2CC2)cc1 : 58
CCN(CC)c1ncnc2ccc(-c3cccc(CN(C)C(=O)C=Cc4ccccc4)c3)cc12 : 43

Record CC(C)Nc1ncnc2ccc(-c3cccc(CN(Cc4ccccc4)C(=O)c4ccccc4Cl)c3)cc12 . Reported inhibition at 10 µM: 40

Record CCCN(Cc1cccc(-c2ccc3ncnc(Nc4ccccc4)c3c2)c1)C(=O)c1ccc(O)nc1 . Reported inhibition at 10 µM: 46

Record O=S(=O)(c1cccs1)N(Cc1cc(-c2ccc3ncnc(NC4CC4)c3c2)ccc1F)C1CC1 . Reported inhibition at 10 µM: 92
